system name: T1, monovalent hVISTA-ECD (human VISTA extracellular domain with His tail) (human, UniProt Q9H7M9 33-193)
T1 construct: analyte flowed over captured antibody; also called huVISTA-His
T1 sequence (Q9H7M9 other isoform, or with tags, fused parts or gaps limits assumed): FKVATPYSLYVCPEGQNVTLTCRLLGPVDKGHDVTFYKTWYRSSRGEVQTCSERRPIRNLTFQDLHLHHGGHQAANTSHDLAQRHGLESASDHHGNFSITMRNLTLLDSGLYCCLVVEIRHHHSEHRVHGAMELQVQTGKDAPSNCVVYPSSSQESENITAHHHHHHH
method description: SPR, pH 6.0
observable: koff (s⁻¹)
Response body: numeric value in s⁻¹, unit text excluded.

Ask: For P1-063153 (41F11_HC_mutant: D31E/Y50W/S55E/Y100E) (antibody, V domains shown, Kabat positions; also called P1-063153-5) VH: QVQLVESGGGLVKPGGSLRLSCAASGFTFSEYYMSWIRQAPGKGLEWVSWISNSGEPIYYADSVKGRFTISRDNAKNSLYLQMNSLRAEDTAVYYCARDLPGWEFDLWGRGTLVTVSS VL: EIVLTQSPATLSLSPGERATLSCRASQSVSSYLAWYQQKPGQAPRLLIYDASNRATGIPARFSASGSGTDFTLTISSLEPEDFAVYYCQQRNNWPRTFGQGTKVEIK , what is its reported koff?
Result: 0.00046

Ask: Proceed to P1-065326 (41F11_VH_D31E/Y50W/S55E/L96E/Y100E VK_A64G) (antibody, V domains shown, Kabat positions; also called P1-065326-1) VH: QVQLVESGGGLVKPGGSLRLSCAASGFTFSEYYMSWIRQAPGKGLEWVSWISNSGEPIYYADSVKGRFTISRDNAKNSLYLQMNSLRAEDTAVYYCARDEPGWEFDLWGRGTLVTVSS VL: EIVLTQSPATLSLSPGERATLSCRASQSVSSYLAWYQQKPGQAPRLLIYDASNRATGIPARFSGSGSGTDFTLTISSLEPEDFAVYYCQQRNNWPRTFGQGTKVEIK
Result: 0.00036

Ask: Proceed to P1-063001 (41F11_LC_Mutant: V29D/A64G/R91T) (antibody, V domains shown, also called P1-063001-5; P1-063001-6) VH: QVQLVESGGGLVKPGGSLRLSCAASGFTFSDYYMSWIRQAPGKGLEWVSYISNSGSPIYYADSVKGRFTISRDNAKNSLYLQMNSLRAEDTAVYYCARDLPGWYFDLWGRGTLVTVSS VL: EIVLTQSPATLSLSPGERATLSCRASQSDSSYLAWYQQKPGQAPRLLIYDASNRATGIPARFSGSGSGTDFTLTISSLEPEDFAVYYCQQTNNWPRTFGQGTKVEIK
Result: 0.0013

Where do these numbers come from? They come from patent US20220073617A1.
